compounds and their reported IC50
# targetOfAssay: Monoamine oxidase (Rattus norvegicus, UniProt P19643+P21396)
# measurementProtocol: In vitro inhibition of Monoamine oxidase at rat hyphalamic mitochondrial 5-HT by displacing 2.5 uM of [14C]5-HT.
# Format: protein assay
endpoint: IC50 (nM)

C=C=CCN(C)C(C)Cc1ccccc1 (stereo not drawn) | 800
CC=C=CCN(C)Cc1ccccc1 | 29000
C=C=CCN(C)C1CCc2ccccc21 (stereo not drawn) | 1800

====

compounds and their reported IC50
# targetOfAssay: Monoamine oxidase (Rattus norvegicus, UniProt P19643+P21396)
# Sequence (P19643 whole entry): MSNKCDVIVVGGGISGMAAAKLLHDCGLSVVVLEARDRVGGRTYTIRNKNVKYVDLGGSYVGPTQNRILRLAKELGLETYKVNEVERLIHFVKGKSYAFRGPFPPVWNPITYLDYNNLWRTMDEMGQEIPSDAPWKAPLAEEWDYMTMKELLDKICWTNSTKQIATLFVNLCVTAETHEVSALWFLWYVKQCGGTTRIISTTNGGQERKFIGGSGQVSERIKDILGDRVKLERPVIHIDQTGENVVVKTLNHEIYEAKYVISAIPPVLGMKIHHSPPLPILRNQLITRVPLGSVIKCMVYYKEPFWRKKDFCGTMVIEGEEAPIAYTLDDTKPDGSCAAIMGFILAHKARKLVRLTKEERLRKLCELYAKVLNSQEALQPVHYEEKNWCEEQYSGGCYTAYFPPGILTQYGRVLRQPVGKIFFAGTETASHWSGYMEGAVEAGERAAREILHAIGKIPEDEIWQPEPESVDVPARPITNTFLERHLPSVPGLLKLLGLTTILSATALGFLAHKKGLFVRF
# Sequence (P21396 whole entry): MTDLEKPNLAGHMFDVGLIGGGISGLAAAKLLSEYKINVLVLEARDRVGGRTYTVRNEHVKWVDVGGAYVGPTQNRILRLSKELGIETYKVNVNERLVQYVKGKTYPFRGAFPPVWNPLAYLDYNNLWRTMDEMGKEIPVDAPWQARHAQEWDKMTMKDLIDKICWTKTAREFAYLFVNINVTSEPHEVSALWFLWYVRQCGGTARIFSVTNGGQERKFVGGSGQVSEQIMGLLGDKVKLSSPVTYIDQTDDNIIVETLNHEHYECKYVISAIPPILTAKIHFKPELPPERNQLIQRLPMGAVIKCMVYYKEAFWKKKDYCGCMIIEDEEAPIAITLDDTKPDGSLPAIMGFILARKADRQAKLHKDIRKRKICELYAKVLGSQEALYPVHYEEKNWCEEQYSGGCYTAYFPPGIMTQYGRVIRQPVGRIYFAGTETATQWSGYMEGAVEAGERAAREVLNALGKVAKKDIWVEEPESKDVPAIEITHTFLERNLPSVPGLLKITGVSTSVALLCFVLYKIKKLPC
# measurementProtocol: In vitro inhibition of Monoamine oxidase at rat hyphalamic mitochondrial PEA by displacing 2.5 uM of [14C]PEA.
# Type: protein assay
endpoint: IC50 (nM)

C=C=C(CN)Cc1ccccc1 | 140
C=C=C(CNC)Cc1ccccc1 | 440
